PROCEDURE_TEXT: MTT cell viability assay
Assay type: cell-based
ASSAY_CONTEXT: human, HEK-293 embryonic kidney non-cancer cells, normal cell line, mean ± SE, unit inferred, read-out: Cytotoxicity (IC50), HEK-293
Listed next: entries and their corresponding IC50.
OBSERVABLE: IC50 (µg/mL)

MOLECULE | VALUE_OBSERVED
COc1cccc2c1C(=O)c1c(O)c3c(c(O)c1C2=O)C[C@@](O)(C(=O)CO)C[C@@H]3O[C@H]1C[C@H](N)[C@H](O)[C@H](C)O1 [Doxorubicin] | 205
CC(=O)Oc1ccccc1C(=O)O [Aspirin, acetylsalicylic acid] | 240

* * *

Tested on: gastric mucosa
PROCEDURE_TEXT: Evaluation of gastrointestinal toxicity (gastric ulcers)
Assay type: in vivo
ASSAY_CONTEXT: rat, 400 mg/kg orally, 4 h, mean ± standard deviation
OBSERVABLE: Gastric Mucosal Lesions, Ulcer Area

COMPOUND | OBSERVABLE | VALUE_OBSERVED
CC(=O)Oc1ccccc1C(=O)O [Aspirin, acetylsalicylic acid] | Gastric Mucosal Lesions, Ulcer Area | 86.9 mm²
